# Tested on: human hepatocellular carcinoma cell line HepG-2
# PROTOCOL_NOTES: MTT assay, inhibition of tumor cell growth (HepG2)
# Type: cell-based
# STUDY_CONDITIONS: 72 hours incubation, read-out: IC50 on the tumor cells HepG2
pIC50: −log10 of the molar value.
VALUE_TYPE: pIC50

STRUCTURE: CCN1C(=O)C(=C2Oc3ccc(Cl)cc3C2=NO)c2cccc(F)c21
SYSTEM_UNDER_TEST: human hepatocellular carcinoma cell line HepG-2
VALUE_MODIFIER: <
RECORDED_RESULT: 4.00

STRUCTURE: O=C1Nc2nc(Cl)ccc2C1=C1C(=O)Oc2ccccc21
SYSTEM_UNDER_TEST: human hepatocellular carcinoma cell line HepG-2
VALUE_MODIFIER: =
RECORDED_RESULT: 4.59

STRUCTURE: CC(C)N1C(=O)C(=C2Oc3ccccc3C2=NO)c2cccc(F)c21
SYSTEM_UNDER_TEST: human hepatocellular carcinoma cell line HepG-2
VALUE_MODIFIER: =
RECORDED_RESULT: 4.29

STRUCTURE: CC(C)N1C(=O)C(=C2Oc3ccccc3C2=O)c2cc(Cl)cnc21
SYSTEM_UNDER_TEST: human hepatocellular carcinoma cell line HepG-2
VALUE_MODIFIER: =
RECORDED_RESULT: 4.74

STRUCTURE: CC(C)N1C(=O)C(=C2Oc3ccccc3C2=NO)c2ccccc21
SYSTEM_UNDER_TEST: human hepatocellular carcinoma cell line HepG-2
VALUE_MODIFIER: =
RECORDED_RESULT: 4.89

STRUCTURE: O=C1C(=C2Oc3ccccc3C2=NO)c2ccccc2N1Cc1ccccc1
SYSTEM_UNDER_TEST: human hepatocellular carcinoma cell line HepG-2
VALUE_MODIFIER: =
RECORDED_RESULT: 4.49

STRUCTURE: CCN1C(=O)C(=C2Oc3ccccc3C2=NO)c2cccc(F)c21
SYSTEM_UNDER_TEST: human hepatocellular carcinoma cell line HepG-2
VALUE_MODIFIER: =
RECORDED_RESULT: 4.52

STRUCTURE: CON=C1C(=C2C(=O)N(Cc3ccccc3)c3ccc(Cl)cc32)Oc2ccccc21
SYSTEM_UNDER_TEST: human hepatocellular carcinoma cell line HepG-2
VALUE_MODIFIER: =
RECORDED_RESULT: 5.42
